Entries and their phosphorylation enrichment values follow.
System: AncSZ;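 further: 11-residue human phosphosite peptides and single-mutation variants displayed on the E. coli surface, counted by deep sequencing, each peptide's frequency after selection divided by its frequency in the unselected input library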;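 further: frequency after pTyr selection over input frequency; kinase dosed for 20-30% of maximal phosphorylation in three min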
assay-remarks: phosphorylation enrichment, bacterial display (enrichment ratio); higher = better substrate or ligand; peptides without Tyr show the background
metric-name: phosphorylation enrichment

GNKENYGLPQP [BUB1_Y538] ... 0.634
RSFPSYYTSHV [NEFL_Y442] ... 1.05
NQDRTYFESVR [SPEN_Y632_YF] ... 0.852
SDVCMYRKNIY [SYNE2_Y570] ... 1.12
RIVRKYKKVRF [F8_Y442_G439V] ... 0.964
FPPTHYIRRVP [SLC4A11_Y820_YF] ... 0.953
IDSTPYGQWFE [RPS8_Y109_R110G_YF] ... 1.27
RPSRWYQFRVA [ANOS1_Y259] ... 1.22
KRAIGYFSATS [FAM120A_Y327_YF] ... 0.543
QLFGAYLRIHA [BSCL2_Y213_YF] ... 1.49
DDSSAYRSVDE [BCKDHA_Y345] ... 1.16
SKEPFYVRCIK [MYO1D_Y586_YF] ... 0.939
PSSNLYFRWLT [CNGA3_Y168_YF] ... 1.7
CEDMEYLESKQ [BTK_Y511_A508D] ... 1.3
HKDNNYVSMWF [PAPOLG_Y432] ... 1.36
SVTCTYSPALY [TP53_Y126_N131Y] ... 1.76
YQEPVYSVAFS [TBL1X_Y509_H504Y] ... 5.95
FRPPYYHRDCM [HGD_Y334_N337D] ... 0.805
EESREYDRLYE [PIK3R1_Y463_K459E] ... 1.42
AKLVQYYMEHH [PTPN11_Y80_E76K] ... 0.774
CTTIHYNHMCN [TP53_Y234_Y236H] ... 0.692
INASGYRIGPA [ACSM1_Y477] ... 0.479
DHTVNYVLKCR [PLEKHG4_Y1068_R1064H] ... 1.18
TYGVVYRAKDK [CDK11B_Y453] ... 0.595
IEEGTYGVVFR [CDK11B_Y449_YF] ... 1.41
TKDTFYKQPMV [GBA_Y451_F456V] ... 0.726
YSSLGYPLPEG [ZSWIM4_Y87_P89L] ... 1.01
LDYNEYFRYLN [HPRT1_Y198_D201Y] ... 1.79
FVHDNYVIRRT [CPS1_Y1450] ... 0.772
MHDSNYVSKGS [PDGFRA_Y849] ... 0.648
YTDPYYDYEIE [ZC3H18_Y372_A368T] ... 2.13
GHPYAYDWISI [BEST1_Y227_L224P] ... 1.47
KLKRSYSSRDI [USP8_Y717_P720R] ... 0.45
CRERPYGGGGG [FUS_Y526_R521C] ... 0.631
ENQEIYQKAFD [KPNA1_Y493] ... 1.43
LWQSIYNLDAE [TNNT2_Y251_E254D] ... 1.38
MAFDRYVAICS [OR8D4_Y123_C120Y_YF] ... 1.15
SVTCTDSPALN [TP53_Y126_Y126D] ... 0.975
FLNSIYQSRDE [ROS1_Y2227_K2228Q] ... 0.743
AAARPYHIQKW [ACSBG1_Y677] ... 0.601
KNKELYSDPFD [PDE10A_Y300_L303P] ... 0.877
IYETDYYQKGG [INSR_Y1189_R1191Q] ... 1.88
KRLKDYLMVLQ [USP25_Y425_T427M] ... 0.661
MAQDIYRASFF [ALK_Y1278_R1275Q_YF] ... 0.683
LGIDRYHAIVY [NPSR1_Y147_S143G] ... 0.717
RDVEQYVNNVN [PCDH19_Y1097_L1094V] ... 0.928
TKQLTYEEQYL [PIK3C3_Y310_D314Y] ... 0.95
RLNWIYFKDQT [RS1_Y165_YF] ... 2.98
SRVNKYSTAFG [GJB3_Y16_G12R] ... 0.571
RRNVYYYSYLL [PTEN_Y177_Y174N] ... 1.16
FPAVGYHKPHI [IDS_Y225_L221P] ... 0.638
